B1: tRNA (parent)
chain: GUUCCGUUGGCGUAAUGGUAACGCGUCUCCCUCCUAAGGAGAAGACUGCGGGUUCGAGUCCCGUACGGAACG

# Variants of: B1
# experiment_notes: yeast fitness relative to wild type (ratio to wild type); higher = fitter; tRNA-Arg(CCU), competitive growth, 37 C, YPD
Variants at the floor of the assay were thinned out.
# binarize yeast fitness: threshold 0.6 inclusive, high side rule met, low side rule not met

Query block: Given G23C U26C A37G A40G A42G U64C , state whether its yeast fitness is at least 0.6.
Result block: rule not met

Query block: Given U26C U35G G50A C62U , state whether its yeast fitness is at least 0.6.
Result block: rule not met

Query block: Given C4G C11U A36G G63A , state whether its yeast fitness is at least 0.6.
Result block: rule not met

Query block: Given U3A C22G C29U G63A , state whether its yeast fitness is at least 0.6.
Result block: rule not met

Query block: Given C4U U16C U32A G58A C60U , state whether its yeast fitness is at least 0.6.
Result block: rule not met

Query block: Given U16G A21G C30U A37C , state whether its yeast fitness is at least 0.6.
Result block: rule not met

Query block: Given G12A C24U C27A , state whether its yeast fitness is at least 0.6.
Result block: rule not met

Query block: Given A21C C33U C61A G68C , state whether its yeast fitness is at least 0.6.
Result block: rule not met

Query block: Given U8C A21U C34A A40C G68C , state whether its yeast fitness is at least 0.6.
Result block: rule not met

Query block: Given C4A C29U G67A , state whether its yeast fitness is at least 0.6.
Result block: rule not met

Query block: Given C11U C27U C31U A36C G44C A45G G56C , state whether its yeast fitness is at least 0.6.
Result block: rule not met

Query block: Given G12A U54A , state whether its yeast fitness is at least 0.6.
Result block: rule met

Query block: Given A14U U54C C62U , state whether its yeast fitness is at least 0.6.
Result block: rule not met

Query block: Given G6C A37C G51A U53C C62A A70C , state whether its yeast fitness is at least 0.6.
Result block: rule not met

Query block: Given A43U C49G C61U , state whether its yeast fitness is at least 0.6.
Result block: rule not met

Query block: Given C4G U7C C27A A69U , state whether its yeast fitness is at least 0.6.
Result block: rule not met

Query block: Given U19A C30G , state whether its yeast fitness is at least 0.6.
Result block: rule met

Query block: Given G6C C46U , state whether its yeast fitness is at least 0.6.
Result block: rule met

Query block: Given C11A C31U A37C G51C C55G , state whether its yeast fitness is at least 0.6.
Result block: rule not met

Query block: Given C5U U7G A14G C30A A65C , state whether its yeast fitness is at least 0.6.
Result block: rule met

Query block: Given U16G C24U U28C A36C U59C A65C , state whether its yeast fitness is at least 0.6.
Result block: rule not met

Query block: Given A14U G18C A69U , state whether its yeast fitness is at least 0.6.
Result block: rule not met

Query block: Given U7A G41A C61A , state whether its yeast fitness is at least 0.6.
Result block: rule not met

Query block: Given G6A C34A A40U , state whether its yeast fitness is at least 0.6.
Result block: rule not met

Query block: Given U26C A40G , state whether its yeast fitness is at least 0.6.
Result block: rule met

Query block: Given C29G A40U G44A , state whether its yeast fitness is at least 0.6.
Result block: rule not met

Query block: Given U7G A14G C22U G38A C55A G67A , state whether its yeast fitness is at least 0.6.
Result block: rule not met

Query block: Given A14U A21C A36C C49A G68C , state whether its yeast fitness is at least 0.6.
Result block: rule not met

Query block: Given A14U G23C C29G G51A G56U , state whether its yeast fitness is at least 0.6.
Result block: rule not met

Query block: Given C29U G63C , state whether its yeast fitness is at least 0.6.
Result block: rule met

Query block: Given C5G U54C C55G , state whether its yeast fitness is at least 0.6.
Result block: rule not met

Query block: Given G12C A40C , state whether its yeast fitness is at least 0.6.
Result block: rule met

Query block: Given C5G G25A C61G , state whether its yeast fitness is at least 0.6.
Result block: rule not met

Query block: Given G12A G25A U32C , state whether its yeast fitness is at least 0.6.
Result block: rule met

Query block: Given C4U A15G G23C A37U , state whether its yeast fitness is at least 0.6.
Result block: rule not met

Query block: Given C4G A15U C33A G52C C55G , state whether its yeast fitness is at least 0.6.
Result block: rule not met

Query block: Given C30A G56A , state whether its yeast fitness is at least 0.6.
Result block: rule met

Query block: Given C11G A36C C49A , state whether its yeast fitness is at least 0.6.
Result block: rule not met

Query block: Given G6A A15C A36C A42U A43G C55G C61U , state whether its yeast fitness is at least 0.6.
Result block: rule not met

Query block: Given A15U U47A G63A , state whether its yeast fitness is at least 0.6.
Result block: rule not met

Query block: Given G10A U16A G48A A65U , state whether its yeast fitness is at least 0.6.
Result block: rule not met

Query block: Given U13C C33A G41A A45C U59C A65U , state whether its yeast fitness is at least 0.6.
Result block: rule not met

Query block: Given C5U A14C C62A , state whether its yeast fitness is at least 0.6.
Result block: rule not met

Query block: Given U32G G68C , state whether its yeast fitness is at least 0.6.
Result block: rule met

Query block: Given G10C A36U A42G G56A U59G , state whether its yeast fitness is at least 0.6.
Result block: rule not met

Query block: Given G10A C11U G58C A65U , state whether its yeast fitness is at least 0.6.
Result block: rule not met

Query block: Given U28G A43G , state whether its yeast fitness is at least 0.6.
Result block: rule met

Query block: Given G25A A37C G51C A57G , state whether its yeast fitness is at least 0.6.
Result block: rule not met

Query block: Given U28A A42G C66U G67C , state whether its yeast fitness is at least 0.6.
Result block: rule not met

Query block: Given C27U A37C G56C G63C U64C , state whether its yeast fitness is at least 0.6.
Result block: rule not met

Query block: Given A21G C22A G56A A65C , state whether its yeast fitness is at least 0.6.
Result block: rule not met

Query block: Given A15U A21C C24G C29U A42C C55A , state whether its yeast fitness is at least 0.6.
Result block: rule not met

Query block: Given C22G A36G C55G , state whether its yeast fitness is at least 0.6.
Result block: rule not met

Query block: Given A20U U32A G67C , state whether its yeast fitness is at least 0.6.
Result block: rule not met

Query block: Given C4U U64G , state whether its yeast fitness is at least 0.6.
Result block: rule met

Query block: Given G6A G39A U53A , state whether its yeast fitness is at least 0.6.
Result block: rule not met

Query block: Given G9A C22U U26A A43U A65U , state whether its yeast fitness is at least 0.6.
Result block: rule not met

Query block: Given C11U A20C C22G A65G A70C , state whether its yeast fitness is at least 0.6.
Result block: rule not met

Query block: Given C5A G18A G52A C55G , state whether its yeast fitness is at least 0.6.
Result block: rule not met

Query block: Given C24G U54C G68C , state whether its yeast fitness is at least 0.6.
Result block: rule not met

Query block: Given U3A C4U G25C G63C , state whether its yeast fitness is at least 0.6.
Result block: rule not met

Query block: Given U3C G9C C11U U19C C30G A43C , state whether its yeast fitness is at least 0.6.
Result block: rule not met

Query block: Given G38C C49G , state whether its yeast fitness is at least 0.6.
Result block: rule met

Query block: Given U3A G12C , state whether its yeast fitness is at least 0.6.
Result block: rule met

Query block: Given G17A C33G A36G G63A , state whether its yeast fitness is at least 0.6.
Result block: rule not met

Query block: Given C29A U32C A42U A69U , state whether its yeast fitness is at least 0.6.
Result block: rule not met

Query block: Given A15G C60U C62U , state whether its yeast fitness is at least 0.6.
Result block: rule met

Query block: Given G12A G25A G68C , state whether its yeast fitness is at least 0.6.
Result block: rule met

Query block: Given U16A C34A A36C A37G G56C C66A , state whether its yeast fitness is at least 0.6.
Result block: rule not met

Query block: Given A65G , state whether its yeast fitness is at least 0.6.
Result block: rule met

Query block: Given G9A A65C , state whether its yeast fitness is at least 0.6.
Result block: rule met

Query block: Given C27U C33U A36U , state whether its yeast fitness is at least 0.6.
Result block: rule not met

Query block: Given C11U C24G C33A A40C U53C , state whether its yeast fitness is at least 0.6.
Result block: rule met

Query block: Given G9C A37G G41A G50A , state whether its yeast fitness is at least 0.6.
Result block: rule not met

Query block: Given C33A A36C C46G C62G A69U , state whether its yeast fitness is at least 0.6.
Result block: rule not met

Query block: Given A15C C62U , state whether its yeast fitness is at least 0.6.
Result block: rule met

Query block: Given C29U C49U , state whether its yeast fitness is at least 0.6.
Result block: rule met

Query block: Given A57C C60U , state whether its yeast fitness is at least 0.6.
Result block: rule not met

Query block: Given G6C U16A G18C C22G C49U , state whether its yeast fitness is at least 0.6.
Result block: rule not met

Query block: Given G44A A69U , state whether its yeast fitness is at least 0.6.
Result block: rule met

Query block: Given C5U C11G C33G , state whether its yeast fitness is at least 0.6.
Result block: rule not met

Query block: Given C34G A57C G63A , state whether its yeast fitness is at least 0.6.
Result block: rule not met
